Measured values drawn from ChEMBL document CHEMBL1932932 for this set.

Test system: HT-29
Test: Antiproliferative activity against human HT-29 cells assessed as cell viability after 96 hrs by CellTiter-Glo luminescence assay
Format: functional, cell-based
Settings: HT-29, 96 h
metric: IC50

Observe how each entry below is paired with its result.
- CO[C@H]1/C=C\[C@@H](C)CC[C@@H]2C[C@H](C[C@](O)([C@@H]3CSC(=O)N3)O2)OC(=O)/C=C(/C)CC[C@@H]1O: > 2.5 µg/mL
- COC(CC1=CC[C@]2(C)[C@@H](C)CCC[C@]2(C)C1=O)OC: > 2.5 µg/mL
- C=C1C[C@H](C)C[C@@H]2CC=C[C@@H](C/C=C\C(=O)O[C@H]3C[C@@H](O[C@H]3/C=C/[C@@H]3CC(C)=CCO3)[C@@H](O)[C@@H](O)C1)O2 [FIJIANOLIDE A]: 0.04 µg/mL
- C=CC/C=C\Cc1csc(C(C)(C)[C@H](O)C/C=C\C(=C)CCNC(=O)OC)n1: 0.7 µg/mL
- C/C(=C/C(=O)O)CC/C=C/C=C\[C@@H](C)CC[C@@H](O)CCCC(=O)c1csc(=O)[nH]1: > 2.5 µg/mL

API: value(readout=IC50, system=HT-29) for record CCCCCCC(C)CCCCCCCCCOC[C@H](O)COC1[C@@H](O)[C@H](O)[C@@H](O)[C@@H]1O (stereo partly specified) [SACROTRIDE A] > 2.5 µg/mL

====

Experiment: Antiproliferative activity against human H522-T1 cells assessed as cell viability after 96 hrs by CellTiter-Glo luminescence assay
Format: functional, cell-based
Settings: H522-T1, 96 h
metric: IC50

Observe how each entry below is paired with its result.
• C=C1C[C@H](C)C[C@@H]2CC=C[C@@H](C/C=C\C(=O)O[C@H]3C[C@@H](O[C@H]3/C=C/[C@@H]3CC(C)=CC(=O)O3)[C@@H](O)[C@@H](O)C1)O2 [FIIJIANOLIDE D] = > 2.5 µg/mL
• CCCCCCC(C)CCCCCCCCCOC[C@H](O)COC1[C@@H](O)[C@H](O)[C@@H](O)[C@@H]1O (stereo partly specified) [SACROTRIDE A] = > 2.5 µg/mL
• COC(=O)/C=C1/CC[C@]2(C)[C@@H](C)CCC[C@]2(C)C1=O [METHYL AIGNOPSANOATE] = > 2.5 µg/mL
• C/C1=C/C(=O)O[C@@H]2C[C@@H](CC[C@H](C)/C=C\[C@H](O)[C@@H](O)CC1)O[C@@](O)([C@@H]1CSC(=O)N1)C2 = 0.76 µg/mL

Given C[C@H]1CCC[C@]2(C)C(=O)/C(=C\C(=O)O)CC[C@]12C , state its recorded IC50. > 2.5 µg/mL

Given C=C1C[C@H](C)C[C@@H]2CC=C[C@@H](C/C=C\C(=O)O[C@H]([C@@H](O)/C=C/[C@@H]3CC(C)=CCO3)C[C@@H]3O[C@H]3[C@@H](O)C1)O2 [FIJIANOLIDE B] , state its recorded IC50. 0.002 µg/mL

Given C[C@H]1CCC[C@]2(C)C(=O)[C@H](C(O)C(=O)O)CC[C@]12C (stereo partly specified) , state its recorded IC50. > 2.5 µg/mL

Given C/C1=C/C(=O)O[C@@H]2C[C@@H](CC[C@H](C)/C=C\C(=O)CCC1)O[C@@](O)([C@@H]1CSC(=O)N1)C2 , state its recorded IC50. > 2.5 µg/mL

====

Tested on: HT-29
Experiment: Antiproliferative activity against human HT-29 cells assessed as cell viability after 96 hrs by CellTiter-Glo luminescence assay
Format: functional, cell-based
Details: HT-29, 96 h
metric: IC50 (µg/mL)
The answer is to be given in µg/mL; state only the numeric part.

Observe how each entry below is paired with its result.
* C/C1=C/C(=O)O[C@@H]2C[C@@H](CC[C@H](C)/C=C\CC(=O)CC1)O[C@@](O)([C@@H]1CSC(=O)N1)C2 | 0.8
* C=C1C[C@H](C)C[C@@H]2CC=C[C@@H](C/C=C\C(=O)O[C@H]([C@@H](O)/C=C/[C@@H]3CC(C)=CCO3)C[C@@H]3O[C@H]3[C@@H](O)C1)O2 [FIJIANOLIDE B] | 0.003
* C/C1=C/C(=O)O[C@@H]2C[C@@H](CC[C@H](C)/C=C\[C@H](O)[C@@H](O)CC1)O[C@@](O)([C@@H]1CSC(=O)N1)C2 | 0.65

Pending compound:
Given C/C1=C/C(=O)O[C@@H]2C[C@@H](CC[C@H](C)/C=C\C=C\CC1)O[C@@](O)([C@@H]1CSC(=O)N1)C2 , state its recorded IC50. 0.08

====

Test system: U-937
Experiment: Antiproliferative activity against human U937 cells assessed as cell viability after 96 hrs by CellTiter-Glo luminescence assay
Format: functional, cell-based
Conditions: U-937, 96 h
metric: IC50 (µg/mL)
The answer is to be given in µg/mL; state only the numeric part.

* C=C1C[C@H](C)C[C@@H]2CC=C[C@@H](C/C=C\C(=O)O[C@H]([C@@H](O)/C=C/[C@@H]3CC(C)=CCO3)C[C@@H]3O[C@H]3[C@@H](O)C1)O2 [FIJIANOLIDE B] | 0.003

Given C=CC/C=C\Cc1csc(C(C)(C)[C@H](O)C/C=C\C(=C)CCNC(=O)OC)n1 , state its recorded IC50. 0.01

====

Tested on: U-937
Test: Antiproliferative activity against human U937 cells assessed as cell viability after 96 hrs by CellTiter-Glo luminescence assay
Assay type: functional, cell-based
Details: U-937, 96 h
Each record here notes measured IC50.
The answer is to be given in µg/mL; state only the numeric part.

- C/C1=C/C(=O)O[C@@H]2C[C@@H](CC[C@H](C)/C=C\[C@H](O)[C@@H](O)CC1)O[C@@](O)([C@@H]1CSC(=O)N1)C2: 0.31
- C/C1=C/C(=O)O[C@@H]2C[C@@H](CC[C@H](C)/C=C\C=C\CC1)O[C@@](O)([C@@H]1CSC(=O)N1)C2: 0.07

Pending compound:
Given C=C1C[C@H](C)C[C@@H]2CC=C[C@@H](C/C=C\C(=O)O[C@H]3C[C@@H](O[C@H]3/C=C/[C@@H]3CC(C)=CCO3)[C@@H](O)[C@@H](O)C1)O2 [FIJIANOLIDE A] , state its recorded IC50. 0.03

====

Test system: U-937
Assay: Antiproliferative activity against human U937 cells assessed as cell viability after 96 hrs by CellTiter-Glo luminescence assay
Format: functional, cell-based
Settings: U-937, 96 h
metric: IC50

- C/C1=C/C(=O)O[C@@H]2C[C@@H](CC[C@H](C)/C=C\CC(=O)CC1)O[C@@](O)([C@@H]1CSC(=O)N1)C2: 1.18 µg/mL
- CCCCCCC(C)CCCCCCCCCOC[C@H](O)COC1[C@@H](O)[C@H](O)[C@@H](O)[C@@H]1O (some centres undefined) [SACROTRIDE A]: > 2.5 µg/mL
- C/C(=C/C(=O)O)CC/C=C/C=C\[C@@H](C)CC[C@@H](O)CCCC(=O)c1csc(=O)[nH]1: > 2.5 µg/mL

Pending compound:
Given COC(=O)/C=C1/CC[C@]2(C)[C@@H](C)CCC[C@]2(C)C1=O [METHYL AIGNOPSANOATE] , state its recorded IC50. > 2.5 µg/mL

====

Experiment: Antiproliferative activity against human H522-T1 cells assessed as cell viability after 96 hrs by CellTiter-Glo luminescence assay
Type: functional, cell-based
Details: H522-T1, 96 h
Each record here notes measured IC50.
The answer is to be given in µg/mL; state only the numeric part.

Given C=C1C[C@H](C)C[C@@H]2CC=C[C@@H](C/C=C\C(=O)O[C@H]3C[C@@H](O[C@H]3/C=C/[C@@H]3CC(C)=CCO3)[C@@H](O)[C@@H](O)C1)O2 [FIJIANOLIDE A] , state its recorded IC50. 0.02

Given C=CC/C=C\Cc1csc(C(C)(C)[C@H](O)C/C=C\C(=C)CCNC(=O)OC)n1 , state its recorded IC50. 1

Given C/C1=C/C(=O)O[C@@H]2C[C@@H](CC[C@H](C)/C=C\C=C\CC1)O[C@@](O)([C@@H]1CSC(=O)N1)C2 , state its recorded IC50. 0.06

====

Test: Antiproliferative activity against human H522-T1 cells assessed as cell viability after 96 hrs by CellTiter-Glo luminescence assay
Assay type: functional, cell-based
Conditions: H522-T1, 96 h
Each record here notes measured IC50.

* COC(CC1=CC[C@]2(C)[C@@H](C)CCC[C@]2(C)C1=O)OC [AIGNOPSANE KETAL] | > 2.5 µg/mL
* C/C1=C/C(=O)O[C@@H]2C[C@@H](CC[C@H](C)/C=C\CC(=O)CC1)O[C@@](O)([C@@H]1CSC(=O)N1)C2 [LATRUNCULONE B] | 0.8 µg/mL

Pending compound:
Given C/C(=C/C(=O)O)CC/C=C/C=C\[C@@H](C)CC[C@@H](O)CCCC(=O)c1csc(=O)[nH]1 [APO LATRUNCULIN T] , state its recorded IC50. > 2.5 µg/mL
